Test system: HCC827 (exon 19 deletion mutation)
Assay: Cell antiproliferative assay (CTG, 72 h), HCC827
Type: cell-based, human
Settings: Homo sapiens, HCC827, 72 h, Table 2, HCC827 cells
# IC50 listing for each entry below

# annotated cases, reported IC50 shown
I have this compound here, CNC(=O)c1ccccc1Nc1nc(Nc2cc(C)c(N3CCN(C(=O)CN4CCC(c5ccc(NC6CCC(=O)NC6=O)cc5)CC4)C(C)C3)cc2OC)ncc1C(F)(F)F (stereo not shown) , and I need its recorded IC50.
10 to 100 nM

Suppose we examine the compound COc1cc(N2CCN(C(=O)CN3CCC(c4ccc(NC5CCC(=O)NC5=O)nc4)CC3)CC2)ccc1Nc1ncc(Cl)c(Nc2ccccc2C(C)=O)n1 (stereo not shown) ; what IC50 value has been reported?
100 to 1000 nM

# lookup: IC50 of C=CC(=O)Nc1cc(Nc2ncc(C(F)(F)F)c(Nc3ccccc3)n2)c(OC)cc1N(C)CCN(C)C(=O)CN1CCC(c2ccc(NC3CCC(=O)NC3=O)cc2)CC1 (stereo not shown)
≥ 1000 nM

Look up IC50: COc1cc(N2CCN(C(=O)CN3CCC(c4ccc(NC5CCC(=O)NC5=O)cc4)CC3)CC2)ccc1Nc1ncc(Br)c(Nc2ccccc2C(=O)NC2CCCC2)n1 (stereo not shown)
10 to 100 nM

Which IC50 is listed for CNC(=O)c1ccccc1Nc1nc(Nc2ccc(N3CCN(C(=O)CC4(F)CCN(c5ccc(NC6CCC(=O)NC6=O)cc5)CC4)CC3)cc2OC)ncc1Cl (stereo not shown) ?
10 to 100 nM

# lookup: IC50 of COc1cc(N2CCN(C(=O)CN3CCC(c4ccc(NC5CCC(=O)NC5=O)cc4)CC3)CC2)ncc1Nc1ncc(Cl)c(Nc2ccccc2C(C)=O)n1 (stereo not shown)
10 to 100 nM

Look up IC50 for this compound: COc1cc(N2CC3CC(C2)N3C(=O)CN2CCC(c3ccc(NC4CCC(=O)NC4=O)cc3)CC2)ccc1Nc1ncc(Cl)c(Nc2ccccc2C(C)=O)n1 (stereo not shown)
100 to 1000 nM

IC50 lookup needed for COc1cc(N2CCC(N(C)C(=O)CN3CCC(c4ccc(NC5CCC(=O)NC5=O)cc4)CC3)CC2)ccc1Nc1ncc(C(F)(F)F)c(Nc2ccccc2C(C)=O)n1 (stereo not shown) , thanks.
100 to 1000 nM

GET /values?readout=IC50&item= COc1cc(N2CCN(C(=O)CN3CCN(c4ccc5c(c4)CN(C4CCC(=O)NC4=O)C5=O)CC3)CC2)ccc1Nc1ncc(Cl)c(Nc2ccccc2C(C)=O)n1 (stereo not shown)
≥ 1000 nM

Which IC50 value belongs to COc1cc(N2CC(N(C)C(=O)CN3CCC(c4ccc(NC5CCC(=O)NC5=O)cc4)CC3)C2)ccc1Nc1ncc(Cl)c(Nc2ccccc2C(C)=O)n1 (stereo not shown) ?
≥ 1000 nM

Continuing:
Which value of IC50 has been reported for COc1cc(N2CCC(N3CCN(C(=O)CN4CCC(c5ccc(NC6CCC(=O)NC6=O)cc5)CC4)CC3)CC2)ccc1Nc1ncc(Cl)c(Nc2ccccc2C(C)=O)n1 (stereo not shown) in the records?
100 to 1000 nM

What value of IC50 has been reported for the following compound? COc1cc(N2CCN(C(=O)CC3CCN(c4ccc5c(c4)C(=O)N(C4CCC(=O)NC4=O)C5=O)CC3)CC2)ccc1Nc1ncc(Cl)c(Nc2ccccc2C(C)=O)n1 (stereo not shown)
10 to 100 nM

Dear colleague, I am looking for the recorded IC50 of the following compound: `COc1cc(N2CCN(C(=O)CN3CCC(c4ccc(Cn5ccc(=O)[nH]c5=O)cc4)CC3)CC2)ccc1Nc1ncc(Cl)c(Nc2ccccc2C(C)=O)n1`
100 to 1000 nM

What does the record list as IC50 for COc1cc(N2CCN(C(=O)CN3CCC(c4ccc(NC5CCC(=O)NC5=O)cc4)CC3)CC2)ccc1Nc1ncc(Cl)c(Nc2ccccc2C(=O)C(C)C)n1 (stereo not shown) ?
100 to 1000 nM

Param item = COc1ccc(Nc2nc(Nc3ccc(N4CCN(C(=O)CN5CCC(c6ccc(NC7CCC(=O)NC7=O)cc6)CC5)CC4)cc3OC)ncc2Cl)c(C(C)=O)c1 (stereo not shown) ; retrieve measured IC50.
10 to 100 nM
